The reported measurements were obtained from the supplement of paper PMC8149375.

Tested on: CAKI-1
Assay: AUC of dose-response viability curve, drug + dasatinib, normalised to DMSO (arbitrary (AUC of normalised viability)); higher = less growth inhibition
Settings: treatment: drug + dasatinib (fixed dose, not stated); 5 days
Threshold-based label: AUC of dose-response viability curve under 2 gives t, AUC of dose-response viability curve not under 2 gives f.

Answered cases to consult:
{"columns": ["compound", "targetDesc", "labelValue"],
 "data": [
  ["CCn1cc(-c2ccnc3[nH]c(-c4cccc(CN(C)C)c4)cc23)c(-c2ccc(NC(=O)N(C)C)cc2)n1 + Cc1nc(Nc2ncc(C(=O)Nc3c(C)cccc3Cl)s2)cc(N2CCN(CCO)CC2)n1", "CAKI-1", "t"],
  ["CCn1c(-c2nonc2N)nc2c(C#CC(C)(C)O)ncc(OC[C@H]3CCCNC3)c21 + Cc1nc(Nc2ncc(C(=O)Nc3c(C)cccc3Cl)s2)cc(N2CCN(CCO)CC2)n1", "CAKI-1", "f"],
  ["O=C(Nc1c[nH]nc1-c1nc2cc(CN3CCOCC3)ccc2[nH]1)NC1CC1 [AT9283] + Cc1nc(Nc2ncc(C(=O)Nc3c(C)cccc3Cl)s2)cc(N2CCN(CCO)CC2)n1", "CAKI-1", "t"],
  ["CC1(C)CNc2cc(NC(=O)c3cccnc3NCc3ccncc3)ccc21.O=P(O)(O)O.O=P(O)(O)O [Motesanib Diphosphate] + Cc1nc(Nc2ncc(C(=O)Nc3c(C)cccc3Cl)s2)cc(N2CCN(CCO)CC2)n1", "CAKI-1", "f"],
  ["CNC(=O)c1ccccc1Nc1nc(Nc2ccc(N3CCOCC3)cc2OC)ncc1Cl [NVP-TAE226] + Cc1nc(Nc2ncc(C(=O)Nc3c(C)cccc3Cl)s2)cc(N2CCN(CCO)CC2)n1", "CAKI-1", "t"]
]}

Ask: Decide: AUC of dose-response viability curve of C=CC(=O)Nc1cccc(Oc2nc(Nc3ccc(N4CCN(C)CC4)cc3OC)ncc2Cl)c1 [WZ4002] + Cc1nc(Nc2ncc(C(=O)Nc3c(C)cccc3Cl)s2)cc(N2CCN(CCO)CC2)n1 strictly below 2?
Reply: t

Ask: Please determine if COc1cc(OC)c(/C=C/S(=O)(=O)Cc2ccc(OC)c(NCC(=O)[O][Na])c2)c(OC)c1 + Cc1nc(Nc2ncc(C(=O)Nc3c(C)cccc3Cl)s2)cc(N2CCN(CCO)CC2)n1 is below 2 in terms of AUC of dose-response viability curve.
Reply: t

Ask: Lab note: confirm whether the reported AUC of dose-response viability curve for this compound is below 2, equality not counting. compound: CNC(=O)c1cccc(-c2ccc3c(N4CCOC[C@@H]4C)nc(N4CCOC[C@@H]4C)nc3n2)c1 [AZD2014] + Cc1nc(Nc2ncc(C(=O)Nc3c(C)cccc3Cl)s2)cc(N2CCN(CCO)CC2)n1
Reply: t

Ask: Strictly below 2 in AUC of dose-response viability curve? COc1cc2c(Nc3ccc(NC(=O)c4ccccc4)cc3)ncnc2cc1OCCCN1CCOCC1 + Cc1nc(Nc2ncc(C(=O)Nc3c(C)cccc3Cl)s2)cc(N2CCN(CCO)CC2)n1
Reply: t
